Biological target: Toll-like receptor 7 (Homo sapiens, UniProt Q9NYK1)
Sequence (Q9NYK1 whole entry): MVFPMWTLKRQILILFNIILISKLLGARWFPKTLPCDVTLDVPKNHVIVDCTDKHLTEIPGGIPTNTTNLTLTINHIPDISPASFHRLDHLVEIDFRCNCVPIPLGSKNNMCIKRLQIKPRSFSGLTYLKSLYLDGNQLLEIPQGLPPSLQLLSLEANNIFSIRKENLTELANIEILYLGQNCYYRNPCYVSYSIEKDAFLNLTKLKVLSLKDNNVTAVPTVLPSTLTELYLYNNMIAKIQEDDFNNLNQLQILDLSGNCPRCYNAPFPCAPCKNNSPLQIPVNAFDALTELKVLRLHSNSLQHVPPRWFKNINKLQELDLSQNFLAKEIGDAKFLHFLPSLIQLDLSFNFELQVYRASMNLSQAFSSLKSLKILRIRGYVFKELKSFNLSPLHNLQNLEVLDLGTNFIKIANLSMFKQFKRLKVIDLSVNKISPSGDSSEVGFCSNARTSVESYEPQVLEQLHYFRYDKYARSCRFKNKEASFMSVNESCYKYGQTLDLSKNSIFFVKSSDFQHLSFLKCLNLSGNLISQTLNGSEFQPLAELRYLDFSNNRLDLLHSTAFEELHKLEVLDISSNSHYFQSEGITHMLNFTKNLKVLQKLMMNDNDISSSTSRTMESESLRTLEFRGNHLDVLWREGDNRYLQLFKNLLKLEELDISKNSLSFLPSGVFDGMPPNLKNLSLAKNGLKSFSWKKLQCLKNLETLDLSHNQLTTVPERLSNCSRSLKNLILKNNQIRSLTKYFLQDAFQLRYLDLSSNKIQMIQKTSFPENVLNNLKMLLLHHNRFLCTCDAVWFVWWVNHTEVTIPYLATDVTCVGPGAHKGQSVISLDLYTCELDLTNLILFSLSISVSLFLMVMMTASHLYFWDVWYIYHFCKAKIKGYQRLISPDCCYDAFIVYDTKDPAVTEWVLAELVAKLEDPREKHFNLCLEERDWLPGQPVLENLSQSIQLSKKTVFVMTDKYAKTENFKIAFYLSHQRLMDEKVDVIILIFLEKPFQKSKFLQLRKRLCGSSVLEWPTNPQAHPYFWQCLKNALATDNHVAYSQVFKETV
Assay: Activation of human TLR7 expressed in HEK293 cells after 24 hrs by NFkappaB-mediated SEAP reporter gene assay
Format: cell-based
Settings: read-out: EC50
Could you please mark Met for values of EC50 below 200 nM and Not met for values at or above it?

Q: EC50 under 200 nM? Item: `CCCCOc1nc(N)c2[nH]c(=O)n(CCCCCC3CCNCC3)c2n1.Cl`
Ans: Met

Q: A record lists `CCCCOc1nc(N)c2[nH]c(=O)n(CCC3CCNCC3)c2n1.Cl` . Is its EC50 below 200 nM?
Ans: Met

Q: Bench note: check whether `CCCCOc1nc(N)c2[nH]c(=O)n(CCCC3CCNCC3)c2n1.Cl` shows EC50 below 200 nM
Ans: Not met

Q: Strictly below 200 nM in EC50? `CCCCOc1nc(N)c2[nH]c(=O)n(CCCCCCC3CCNCC3)c2n1.Cl`
Ans: Not met

Q: Please check: EC50 for `CCCCOc1nc(N)c2[nH]c(=O)n(CCCCC3CCNCC3)c2n1.Cl` , strictly under 200 nM or not?
Ans: Met

Q: Is EC50 strictly under 200 nM for the entry `CCCCOc1nc(N)c2[nH]c(=O)n(CC3CCNCC3)c2n1.Cl` ?
Ans: Not met

###

Target: Toll-like receptor 8 (Homo sapiens, UniProt Q9NR97)
Sequence (Q9NR97 whole entry): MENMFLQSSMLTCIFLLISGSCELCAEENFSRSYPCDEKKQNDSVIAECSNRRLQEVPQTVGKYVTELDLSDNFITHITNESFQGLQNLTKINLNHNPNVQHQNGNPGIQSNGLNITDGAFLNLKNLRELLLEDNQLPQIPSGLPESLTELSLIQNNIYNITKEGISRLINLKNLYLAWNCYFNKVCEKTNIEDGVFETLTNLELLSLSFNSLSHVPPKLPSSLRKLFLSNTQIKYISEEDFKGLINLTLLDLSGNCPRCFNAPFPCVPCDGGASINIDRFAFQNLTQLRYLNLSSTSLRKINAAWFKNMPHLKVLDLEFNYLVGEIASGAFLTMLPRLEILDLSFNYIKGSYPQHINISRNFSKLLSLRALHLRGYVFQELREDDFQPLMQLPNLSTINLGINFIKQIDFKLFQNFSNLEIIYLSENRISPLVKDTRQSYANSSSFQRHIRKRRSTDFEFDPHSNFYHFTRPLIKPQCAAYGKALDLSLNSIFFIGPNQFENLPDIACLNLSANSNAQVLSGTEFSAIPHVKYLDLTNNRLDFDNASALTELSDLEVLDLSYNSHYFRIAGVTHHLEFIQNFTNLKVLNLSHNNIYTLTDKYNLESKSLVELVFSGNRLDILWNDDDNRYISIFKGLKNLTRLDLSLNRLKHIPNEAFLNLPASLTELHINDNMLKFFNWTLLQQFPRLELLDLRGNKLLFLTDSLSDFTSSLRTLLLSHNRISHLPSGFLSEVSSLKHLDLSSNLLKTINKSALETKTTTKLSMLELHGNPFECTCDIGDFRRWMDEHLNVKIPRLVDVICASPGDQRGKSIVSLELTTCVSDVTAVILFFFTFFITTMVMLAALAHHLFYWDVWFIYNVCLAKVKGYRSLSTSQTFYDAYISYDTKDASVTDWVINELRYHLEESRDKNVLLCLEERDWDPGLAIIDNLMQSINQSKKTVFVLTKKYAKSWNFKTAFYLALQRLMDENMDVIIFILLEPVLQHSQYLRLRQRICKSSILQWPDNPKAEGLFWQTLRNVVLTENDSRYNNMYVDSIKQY
Assay: Activation of human TLR8 expressed in HEK293 cells after 24 hrs by NFkappaB-mediated SEAP reporter gene assay
Type: cell-based
Settings: read-out: EC50
Hi there, I'd appreciate the recorded pEC50 for every entry that follows.
Answer as the number alone; pEC50 is minus log10 of concentration in mol/L.

Q: What pEC50 value was documented for this compound, `CCCCOc1nc(N)c2[nH]c(=O)n(CCCC3CCNCC3)c2n1.Cl` ?
Ans: 3.59

Q: Endpoint output: pEC50 of `CCCCOc1nc(N)c2[nH]c(=O)n(CCCCC3CCNCC3)c2n1.Cl` . Value?
Ans: 3.88

Q: Fill in the blank: the reported pEC50 of `CCCCOc1nc(N)c2[nH]c(=O)n(CCCCCCC3CCNCC3)c2n1.Cl` is ____.
Ans: 4.54

Q: # pEC50 lookup, item `CCCCOc1nc(N)c2[nH]c(=O)n(CCC3CCNCC3)c2n1.Cl`
Ans: 3.64
